- test: Photodecomposition of phthalocyanines in toluene under white light, no added radical source
- assay-setup: time 6 h, radiation 258 kJ/mol × 10^−6; toluene ~9 μM, no added alkene, white light 1.2 kJ/s/m^2
assay-metric: decomp (%)
The reply should be a number in %, with the unit left off.

Recorded decomp (%), per entry:
- COCCC[Si](C)(C)O[Si]1(O[Si](C)(C)CCCOC)n2c3c4ccccc4c2N=C2N=C(N=c4c5ccccc5c(n41)=NC1=NC(=N3)c3ccccc31)c1ccccc12 [Pc 92, SiPc[OSi(CH3)2(CH2)3OCH3]2]: 1
- CCCCCCCC/C=C\CCCCCCCC(=O)O[Si]1(OC(=O)CCCCCCC/C=C\CCCCCCCC)n2c3c4ccccc4c2N=C2N=C(N=c4c5ccccc5c(n41)=NC1=NC(=N3)c3ccccc31)c1ccccc12 [Pc 295, SiPc[OC(O)(CH2)7CH═CH(CH2)7CH3]2]: 3

Incoming: For the molecule C=C[Si](C=C)(C=C)O[Si]1(O[Si](C=C)(C=C)C=C)n2c3c4ccccc4c2N=C2N=C(N=c4c5ccccc5c(n41)=NC1=NC(=N3)c3ccccc31)c1ccccc12 [Pc 279, SiPc[OSi(CH═CH2)3]2] , give its reported decomp (%).
Outgoing: 0

* * *

- test: Photodecomposition of phthalocyanines in toluene under white light, no added radical source
- assay-setup: time 4 h, radiation 172 kJ/mol × 10^−6; toluene ~9 μM, no added alkene, white light 1.2 kJ/s/m^2
Could you label it Satisfied if measured decomp (%) is 3% or higher, and Not satisfied otherwise?

A selection of reference data follows.
• CN(C)CCCCCC[Si](C)(C)O[Si]1(O[Si](C)(C)CCCCCCN(C)C)n2c3c4ccccc4c2N=C2N=C(N=c4c5ccccc5c(n41)=NC1=NC(=N3)c3ccccc31)c1ccccc12 [Pc 85, SiPc[OSi(CH3)2(CH2)6N(CH3)2]2] = Satisfied
• CCCCC/C=C\C/C=C\C/C=C\C/C=C\CCCC(=O)O.CCCCC/C=C\C/C=C\C/C=C\C/C=C\CCCC(=O)O.CN(C)CCC[Si](C)(C)O[Si]1(O[Si](C)(C)CCCN(C)C)n2c3c4ccccc4c2N=C2N=C(N=c4c5ccccc5c(n41)=NC1=NC(=N3)c3ccccc31)c1ccccc12 = Satisfied
• CCCCCCCCCCCCCCCCCC(=O)O.CCCCCCCCCCCCCCCCCC(=O)O.CN(C)CCC[Si](C)(C)O[Si]1(O[Si](C)(C)CCCN(C)C)n2c3c4ccccc4c2N=C2N=C(N=c4c5ccccc5c(n41)=NC1=NC(=N3)c3ccccc31)c1ccccc12 = Satisfied
• C=CCCCC[Si](C)(C)O[Si]1(O[Si](C)(C)CCCCC=C)n2c3c4ccccc4c2N=C2N=C(N=c4c5ccccc5c(n41)=NC1=NC(=N3)c3ccccc31)c1ccccc12 [Pc 270, SiPc[OSi(CH3)2(CH2)4CH═CH2]2] = Not satisfied
• C=C[Si](C=C)(C=C)O[Si]1(O[Si](C=C)(C=C)C=C)n2c3c4ccccc4c2N=C2N=C(N=c4c5ccccc5c(n41)=NC1=NC(=N3)c3ccccc31)c1ccccc12 [Pc 279, SiPc[OSi(CH═CH2)3]2] = Not satisfied

Incoming: Check this molecule for decomp (%) at or above 3%: COCCC[Si](C)(C)O[Si]1(O[Si](C)(C)CCCOC)n2c3c4ccccc4c2N=C2N=C(N=c4c5ccccc5c(n41)=NC1=NC(=N3)c3ccccc31)c1ccccc12 [Pc 92, SiPc[OSi(CH3)2(CH2)3OCH3]2]
Outgoing: Not satisfied

Incoming: Check this molecule for decomp (%) at or above 3%: CCCCC/C=C\C/C=C\CCCCCCCC(=O)O.CCCCC/C=C\C/C=C\CCCCCCCC(=O)O.CN(C)CCC[Si](C)(C)O[Si]1(O[Si](C)(C)CCCN(C)C)n2c3c4ccccc4c2N=C2N=C(N=c4c5ccccc5c(n41)=NC1=NC(=N3)c3ccccc31)c1ccccc12
Outgoing: Satisfied
